# testedSystem: KIF18a-Microtubule Complex (Homo sapiens (Human))
# Sequence (Q8NI77 whole entry, looked up): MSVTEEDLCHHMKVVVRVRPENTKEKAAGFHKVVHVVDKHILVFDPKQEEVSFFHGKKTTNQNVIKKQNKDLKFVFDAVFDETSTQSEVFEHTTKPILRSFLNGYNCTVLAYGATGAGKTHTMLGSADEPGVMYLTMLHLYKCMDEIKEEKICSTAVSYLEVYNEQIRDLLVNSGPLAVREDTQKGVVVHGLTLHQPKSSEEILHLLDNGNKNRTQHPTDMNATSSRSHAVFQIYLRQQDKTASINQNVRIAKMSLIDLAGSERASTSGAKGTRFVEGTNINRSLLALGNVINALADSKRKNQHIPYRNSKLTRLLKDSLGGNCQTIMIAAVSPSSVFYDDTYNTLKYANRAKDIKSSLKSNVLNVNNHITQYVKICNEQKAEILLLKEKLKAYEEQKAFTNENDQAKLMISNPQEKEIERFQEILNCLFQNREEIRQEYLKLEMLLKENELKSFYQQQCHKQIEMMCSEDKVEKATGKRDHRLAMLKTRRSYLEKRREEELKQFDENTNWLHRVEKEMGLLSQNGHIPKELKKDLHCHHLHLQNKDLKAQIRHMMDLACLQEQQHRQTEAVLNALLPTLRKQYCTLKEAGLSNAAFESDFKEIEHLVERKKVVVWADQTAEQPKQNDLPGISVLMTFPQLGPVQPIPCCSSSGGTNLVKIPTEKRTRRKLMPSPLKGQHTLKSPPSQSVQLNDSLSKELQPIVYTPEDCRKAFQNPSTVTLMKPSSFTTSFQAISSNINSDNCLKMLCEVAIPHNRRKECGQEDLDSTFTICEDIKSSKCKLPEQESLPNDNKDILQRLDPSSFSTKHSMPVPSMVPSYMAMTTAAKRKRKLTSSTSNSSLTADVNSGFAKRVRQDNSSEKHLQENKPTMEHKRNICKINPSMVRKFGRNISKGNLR
# Sequence (Q2XVP4 whole entry partner, looked up): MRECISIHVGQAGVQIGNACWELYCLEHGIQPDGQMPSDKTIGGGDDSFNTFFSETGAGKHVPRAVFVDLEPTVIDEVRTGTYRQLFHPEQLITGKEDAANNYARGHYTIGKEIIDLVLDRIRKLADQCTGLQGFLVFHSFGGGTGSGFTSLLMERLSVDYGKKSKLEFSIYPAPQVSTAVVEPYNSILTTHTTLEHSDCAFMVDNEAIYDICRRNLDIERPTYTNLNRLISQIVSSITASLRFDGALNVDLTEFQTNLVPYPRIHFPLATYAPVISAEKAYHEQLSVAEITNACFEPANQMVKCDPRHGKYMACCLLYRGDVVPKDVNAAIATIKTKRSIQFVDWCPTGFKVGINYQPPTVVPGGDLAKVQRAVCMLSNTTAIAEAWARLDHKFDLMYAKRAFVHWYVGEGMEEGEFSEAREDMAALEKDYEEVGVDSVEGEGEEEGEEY
# Sequence (P02554 whole entry partner, looked up): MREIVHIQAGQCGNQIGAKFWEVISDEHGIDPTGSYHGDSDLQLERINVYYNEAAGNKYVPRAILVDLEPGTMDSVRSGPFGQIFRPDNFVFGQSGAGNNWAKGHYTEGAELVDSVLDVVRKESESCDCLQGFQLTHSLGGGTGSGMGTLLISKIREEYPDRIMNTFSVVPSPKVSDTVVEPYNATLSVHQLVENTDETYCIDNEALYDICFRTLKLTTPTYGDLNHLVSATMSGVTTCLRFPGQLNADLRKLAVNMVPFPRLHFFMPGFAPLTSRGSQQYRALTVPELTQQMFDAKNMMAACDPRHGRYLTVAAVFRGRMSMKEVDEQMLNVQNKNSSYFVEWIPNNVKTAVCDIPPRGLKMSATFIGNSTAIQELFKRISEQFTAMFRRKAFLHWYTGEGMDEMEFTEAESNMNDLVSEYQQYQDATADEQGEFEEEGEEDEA
# protocolText: Binding kinetics to KIF18a-microtubule complex (global progress curve analysis)
# recordedConditions: ln(2)/koff
Criterion: disc. t1/2 (dissociation half-life ln(2)/koff) meeting or surpassing 2 h. Met: TRUE. Not met: FALSE.

{"compound": "CCS(=O)(=O)Nc1ccc2c(c1)C1(CCC3(CC3)CC1)CN2C(=O)c1cccc(S(=O)(=O)N2CC3(CCO3)C2)c1 [Compound 320]", "group": "TRUE"}
{"compound": "CS(=O)(=O)Nc1ccc2c(c1)C1(CCCCC1)CN2C(=O)c1cccc(S(=O)(=O)N2CCC(F)(F)CC2)c1 [Compound 19]", "group": "TRUE"}
{"compound": "CCS(=O)(=O)Nc1ccc2c(c1)[C@]1(CC[C@H](C(F)F)CC1)CN2C(=O)c1cccc(S(=O)(=O)NC(C)(C)C)c1 [Compound 333b]", "group": "TRUE"}
{"compound": "CS(=O)(=O)Nc1ccc2c(c1)C1(CCC3(CC3)CC1)CN2C(=O)c1cccc([C@H](O)C2CC(F)(F)C2)c1 (single isomer, unassigned) [Compound 351a]", "group": "FALSE"}
{"compound": "CC1(NS(=O)(=O)c2cccc(C(=O)N3CC4(CCC5(CC5)CC4)c4cc(NS(C)(=O)=O)ccc43)c2)CCC1 [Compound 182]", "group": "TRUE"}
